Tested on: Human immunodeficiency virus 1
TEST: Antiviral activity against HIV1 3B infected in human MT4 cells assessed as reduction in virus-induced cytopathic effect by MTT assay
Assay type: functional, organism-based
ASSAY_CONTEXT: Human immunodeficiency virus 1, 3B, read-out: EC50
pEC50: −log10 of the molar value.
// label = 1 (yes) if pEC50 is not less than 8, otherwise 0 (no)

Take a look at these entries with their results.
>>> class_label("Nc1ccn([C@@H]2CS[C@H](CO)O2)c(=O)n1 [LAMIVUDINE]")
"0 (no)"
>>> class_label("Cc1cc(C#N)cc(C)c1Oc1nc(Nc2ccc(C#N)cc2)nc(N)c1Br [ETRAVIRINE]")
"1 (yes)"
>>> class_label("Cc1cc(/C=C/C#N)cc(C)c1Oc1ccnc(Nc2ccc(CN3CCS(=O)(=O)CC3)cc2)n1")
"1 (yes)"

Proceed to the following item.
Exam item: decide whether the reported pEC50 for Cc1cc(C#N)cc(C)c1Oc1ccnc(Nc2ccc(CN3CCN(S(=O)(=O)C(C)C)CC3)cc2)n1 is at least 8.
0 (no)

* * *

System: Human immunodeficiency virus 1
TEST: Antiviral activity against HIV1 RES056 harboring K103N/Y181C double mutant infected in human MT4 cells assessed as reduction in virus-induced cytopathic effect by MTT assay
Type: functional, organism-based
ASSAY_CONTEXT: Human immunodeficiency virus 1, RES056, MT4; read-out: EC50
pEC50: −log10 of the molar value.
MEASURE: pEC50

>>> result("Cc1cc(C#N)cc(C)c1Oc1ccnc(Nc2ccc(CN3CC[S+]([O-])CC3)cc2)n1")
"< 4.26"

Below are some compounds; for each one, tell me its pEC50.
1. Cc1cc(C#N)cc(C)c1Oc1nc(Nc2ccc(C#N)cc2)nc(N)c1Br
2. Cc1cc(/C=C/C#N)cc(C)c1Oc1ccnc(Nc2ccc(CN3CCN(S(=O)(=O)C4CC4)CC3)cc2)n1
3. C=CC(=O)N1CCN(Cc2ccc(Nc3nccc(Oc4c(C)cc(/C=C/C#N)cc4C)n3)cc2)CC1

1: 7.21; 2: < 5.36; 3: < 5.28

* * *

System: Human immunodeficiency virus 1
TEST: Antiviral activity against HIV1 RES056 harboring K103N/Y181C double mutant infected in human MT4 cells assessed as reduction in virus-induced cytopathic effect by MTT assay
Type: functional, organism-based
ASSAY_CONTEXT: Human immunodeficiency virus 1, RES056, MT4; read-out: EC50
pEC50: −log10 of the molar value.
MEASURE: pEC50

Solved entries:
>>> result("O=C1Nc2ccc(Cl)cc2[C@@](C#CC2CC2)(C(F)(F)F)O1")
6.47
>>> result("Cc1cc(/C=C/C#N)cc(C)c1Oc1ccnc(Nc2ccc(CN3CCSCC3)cc2)n1")
5.45
>>> result("Cc1cc(/C=C/C#N)cc(C)c1Oc1ccnc(Nc2ccc(CN3CCN(S(=O)(=O)C(C)C)CC3)cc2)n1")
"< 5.42"
>>> result("CCS(=O)(=O)N1CCN(Cc2ccc(Nc3nccc(Oc4c(C)cc(/C=C/C#N)cc4C)n3)cc2)CC1")
6.01

Below are some molecules; for each one, tell me its pEC50.
1. Cc1ccnc2c1NC(=O)c1cccnc1N2C1CC1
2. Cc1cc(C#N)cc(C)c1Oc1ccnc(Nc2ccc(CN3CCN(S(=O)(=O)N(C)C)CC3)cc2)n1
3. Cc1cc(/C=C/C#N)cc(C)c1Oc1ccnc(Nc2ccc(CN3CCCN(S(=O)(=O)N(C)C)CC3)cc2)n1

["< 4.82", "< 5.35", "< 5.41"]

Below are some molecules; for each one, tell me its pEC50.
1. Cc1cc(C#N)cc(C)c1Oc1ccnc(Nc2ccc(CN3CCSCC3)cc2)n1
2. Cc1cc(C#N)cc(C)c1Oc1ccnc(Nc2ccc(CN3CCCN(S(C)(=O)=O)CC3)cc2)n1

< 4.62
< 5.11

* * *

Field: selectivity ratio. Provide a value for each of the compounds that follow.
TEST: Selectivity index, ratio of CC50 for human MT4 cells to EC50 for antiviral activity against HIV HIV1 RES056 harboring K103N/Y181C double mutant infected in human MT4 cells
Assay type: toxicity, cell-based
ASSAY_CONTEXT: read-out: Ratio CC50/EC50

Solved entries:
>>> result("Cc1cc(C#N)cc(C)c1Oc1ccnc(Nc2ccc(CN3CCCN(S(C)(=O)=O)CC3)cc2)n1")
"< 1"
>>> result("Cc1cc(/C=C/C#N)cc(C)c1Oc1ccnc(Nc2ccc(CN3CCCN(S(C)(=O)=O)CC3)cc2)n1")
"< 1"
>>> result("Cc1cc(C#N)cc(C)c1Oc1ccnc(Nc2ccc(CN3CCN(S(=O)(=O)C4CC4)CC3)cc2)n1")
"< 1"
>>> result("Cc1cn([C@H]2C[C@H](N=[N+]=[N-])[C@@H](CO)O2)c(=O)[nH]c1=O")
"> 267"

Below are some compounds; for each one, tell me its selectivity ratio.
1. Cc1cc(C#N)cc(C)c1Oc1ccnc(Nc2ccc(CN3CCSCC3)cc2)n1
2. Nc1ccn([C@@H]2CS[C@H](CO)O2)c(=O)n1
3. Cc1cc(C#N)cc(C)c1Oc1ccnc(Nc2ccc(CN3CCN(S(=O)(=O)N(C)C)CC3)cc2)n1

1. < 1
2. > 13
3. < 1

Below are some compounds; for each one, tell me its selectivity ratio.
1. CCS(=O)(=O)N1CCN(Cc2ccc(Nc3nccc(Oc4c(C)cc(C#N)cc4C)n3)cc2)CC1
2. Cc1cc(/C=C/C#N)cc(C)c1Oc1ccnc(Nc2ccc(CN3CCCN(S(=O)(=O)N(C)C)CC3)cc2)n1

1: < 1; 2: < 1

* * *

TEST: Cytotoxicity against human MT4 cells assessed as reduction in cell viability by MTT assay
Assay type: cell-based
ASSAY_CONTEXT: MT4 cells
MEASURE: CC50 (µM)
One number for each entry, in µM.

Solved entries:
>>> number("Cc1cc(/C=C/C#N)cc(C)c1Oc1ccnc(Nc2ccc(CN3CCN(S(=O)(=O)C(C)C)CC3)cc2)n1")
3.81
>>> number("CCS(=O)(=O)N1CCN(Cc2ccc(Nc3nccc(Oc4c(C)cc(C#N)cc4C)n3)cc2)CC1")
5.24
>>> number("Cc1cc(C#N)cc(C)c1Oc1ccnc(Nc2ccc(CN3CCN(S(=O)(=O)N(C)C)CC3)cc2)n1")
4.46
>>> number("Cc1cc(C#N)cc(C)c1Oc1ccnc(Nc2ccc(CN3CCSCC3)cc2)n1")
24.1
>>> number("Cc1cc(C#N)cc(C)c1Oc1ccnc(Nc2ccc(CN3CCN(S(=O)(=O)C4CC4)CC3)cc2)n1")
4.43

Below are some molecules; for each one, tell me its CC50.
1. Cc1cc(/C=C/C#N)cc(C)c1Oc1ccnc(Nc2ccc(CN3CCCN(S(=O)(=O)N(C)C)CC3)cc2)n1
2. Cc1cc(/C=C/C#N)cc(C)c1Oc1ccnc(Nc2ccc(CN3CCCN(S(C)(=O)=O)CC3)cc2)n1
3. C=CC(=O)N1CCN(Cc2ccc(Nc3nccc(Oc4c(C)cc(/C=C/C#N)cc4C)n3)cc2)CC1
4. Cc1cc(/C=C/C#N)cc(C)c1Oc1ccnc(Nc2ccc(CN3CCN(S(=O)(=O)N(C)C)CC3)cc2)n1
5. Cc1cc(C#N)cc(C)c1Oc1ccnc(Nc2ccc(CN3CCN(S(=O)(=O)C(C)C)CC3)cc2)n1

3.9
17.4
5.21
3.07
4.54

Below are some molecules; for each one, tell me its CC50.
1. Cc1cc(/C=C/C#N)cc(C)c1Oc1ccnc(Nc2ccc(CN3CCS(=O)(=O)CC3)cc2)n1
2. Cc1cc(/C=C/C#N)cc(C)c1Oc1ccnc(Nc2ccc(CN3CC[S+]([O-])CC3)cc2)n1
3. Cc1cc(C#N)cc(C)c1Oc1ccnc(Nc2ccc(CN3CCS(=O)(=O)CC3)cc2)n1
4. Cc1cc(C#N)cc(C)c1Oc1ccnc(Nc2ccc(CN3CCCN(S(C)(=O)=O)CC3)cc2)n1
5. Cc1cc(C#N)cc(C)c1Oc1ccnc(Nc2ccc(CN3CCCN(S(=O)(=O)N(C)C)CC3)cc2)n1
6. Cc1cc(/C=C/C#N)cc(C)c1Oc1ccnc(Nc2ccc(CN3CCCN(S(=O)(=O)C(C)C)CC3)cc2)n1

1: 18.5; 2: 23.4; 3: 53.2; 4: 7.85; 5: 4.19; 6: 4.64

Below are some molecules; for each one, tell me its CC50.
1. Cc1cc(/C=C/C#N)cc(C)c1Oc1ccnc(Nc2ccc(CN3CCN(S(=O)(=O)C4CC4)CC3)cc2)n1
2. Cc1cc(C#N)cc(C)c1Oc1ccnc(Nc2ccc(CN3CC[S+]([O-])CC3)cc2)n1
3. C=CC(=O)N1CCN(Cc2ccc(Nc3nccc(Oc4c(C)cc(C#N)cc4C)n3)cc2)CC1
4. CCS(=O)(=O)N1CCN(Cc2ccc(Nc3nccc(Oc4c(C)cc(/C=C/C#N)cc4C)n3)cc2)CC1
5. Cc1cc(/C=C/C#N)cc(C)c1Oc1ccnc(Nc2ccc(CN3CCSCC3)cc2)n1

1: 4.35; 2: 54.7; 3: 7.58; 4: 4.6; 5: 14.9

From: ChEMBL document CHEMBL4732113
